Would you kindly list TGI for each of these compounds?
Test system: MOLT-4 leukemia
Assay: NCI tumour cell line growth inhibition, 48 h

Worked examples follow.
O=C(Nc1cccc(C(=O)NCCCO)c1)/C(=C/c1ccccc1)NC(=O)c1ccccc1	> 100 µM
CCCCC1(O)CC2CC1C(C)C2(C)C (stereo not drawn)	> 100 µM
COC(=O)[C@@H](C)C[C@H](Cc1ccccc1)NC(=O)c1csc([C@@H](C[C@H](C(C)C)N(C)C(=O)[C@@H](NC(=O)[C@H]2CCCN2C)C2CC2)OC(C)=O)n1	> 25 µM
NC(N)=Nc1ccc(/C=C2\C=Cc3ccccc32)cc1	5.22 µM
CC(C(=O)n1ccnc1)N1c2ccccc2Sc2ccccc21 (stereo not drawn)	> 100 µM
COC(=O)c1oc2c(C(=O)/C=C/c3ccc(OC)cc3)c(OCCN3CCOCC3)ccc2c1C	3.72 µM
O=C(O)CN(c1ccc(F)cc1)S(=O)(=O)c1ccccc1	> 100 µM
COc1ccccc1NC(=O)CC(=O)N1N=C(c2ccccc2)C(N=Nc2ccc(Cl)cc2)C1=O (stereo not drawn)	> 100 µM

For each listed entry, give its TGI.
1. Cc1cn(C2CCN(CC3COC(C)(C)O3)O2)c(=O)[nH]c1=O (stereo not drawn)
2. Cn1cc(-c2nnc(-c3ccc(Cl)cc3)[nH]c2=O)c2ccccc21
3. O=c1[nH]c2cc([N+](=O)[O-])c(N/N=C/c3ccc(Cl)cc3Cl)c([N+](=O)[O-])c2[nH]1
4. COc1cc(C2CC(=O)Nc3c2c(C)nn3-c2nc3ccccc3[nH]2)cc(OC)c1O (stereo not drawn)
5. C=C1C(=O)O[C@H]2[C@H]1CC/C(CNC(=O)/C=C/c1ccccc1F)=C\CC[C@@]1(C)O[C@@H]21
6. O=C(O)Cc1ccc(N=Nc2c(O)c(C(=O)O)cc3ccccc23)cc1

> 100 µM
98.8 µM
> 100 µM
0.242 µM
4.86 µM
> 100 µM
